Task for the reader: assign each of the following molecules its reported logP.
assay: method code SF-AS, from DOI: 10.1007/s001289900721, PMID: 9657823

INSERT INTO results (smilesstructure, result) VALUES
  ('COc1ccc(OC)c(C=O)c1', 1.91);

(Q) For O=Cc1cc(O)ccc1O , what is its reported logP?
(A) 0.54

---

measurementLabel: logP
Give bare numbers.

(Q) For Clc1cc(Cl)c(-c2cc(Cl)c(Cl)cc2Cl)cc1Cl , what is its reported logP?
(A) 6.67

---

Give 1 when the value for logP is at least 6. Give 0 when it is less.

Below, 3 molecules whose answers are already recorded.
INSERT INTO measurements (smilesstructure, group) VALUES
  ('Cc1ccc2c(ccc3ccccc32)c1', 0),
  ('Cc1cccc2c1ccc1ccccc12', 0),
  ('c1ccc2cc3cc4c(ccc5ccccc54)cc3cc2c1', 1);

Next:
(Q) Is logP for c1ccc2cc3cc4ccccc4cc3cc2c1 at or above 6?
(A) 0

---

test: method code SF-AS, from DOI: 10.1016/0041-008x(67)90079-8
Give met when the value for logP is at least 3. Give not met when it is less.

INSERT INTO results (smilesstructure, group) VALUES
  ('Clc1cncc(Cl)c1', 'not met');

(Q) Is logP for Clc1ccc(Cl)c(Cl)n1 at or above 3?
(A) not met

---

measurementLabel: logP
Answers are plain numbers.

INSERT INTO assay_data (smilesstructure, measurementlabel, numericreadout) VALUES
  ('CC(C)C(=O)NC(N)=O', 'logP', 0.04);

Turning now to a further molecule:
(Q) For CC(C)CC(=O)NC(N)=O , what is its reported logP?
(A) 0.45

---

test: method code SF, from DOI: 10.1021/jm00123a006, PMID: 2918500; details: pH 7.4
measurementLabel: logD

(Q) For Nc1ccc(CCN2CCN(c3cccc(C(F)(F)F)c3)CC2)cc1I , what is its reported logD?
(A) 3.69

---

Task for the reader: assign each of the following molecules its reported logD.
assay: method code SF-AS, from M. Kuchar, J. Tomkova, V. Rejholec, & O. Roubinek. (1992). Some problems of the chromatographic evaluation of lipophicity. In Kuchar, M. (Ed.) QSAR in Design of Bioactive Compounds (pp. 65-81). Prous …; conditions: pH 3.4
Answers are plain numbers.

INSERT INTO measurements (molecule, numericreadout) VALUES
  ('CCCCCCOc1ccc(CC(=O)O)cc1', 3.96),
  ('O=C(O)CCc1ccc(OCc2ccccc2)c(Cl)c1', 3.89);

// each listed molecule needs a value for logD
1. COc1ccc(C(O)C(=O)O)cc1 (centres undefined)
2. CC(C)Cc1ccc(CC(=O)O)cc1

(A)
[0.63, 3.35]

---

test: method code SF-AS, from DOI: 10.1021/es00082a014; conditions: pH 7.0
measurementLabel: logD
Answers are plain numbers.

(Q) For Cc1ccc(N)cc1C , what is its reported logD?
(A) 1.86

---

assay: method code SF-HPLC, from DOI: 10.1111/j.1747-0285.2011.01193.x, PMID: 21777394; conditions: pH 7.4
measurementLabel: logD

(Q) For C[C@@H](OC(=O)N(N(CCCl)S(C)(=O)=O)S(C)(=O)=O)c1ccc([N+](=O)[O-])cc1 , what is its reported logD?
(A) 2.15
